- testSystem: Mouse VCP (Mus musculus)
- Construct: histidine tag (N); made in house; host or cells: Sf-9 insect cells (baculovirus vector pVL1392)
- Sequence (Q01853 whole entry): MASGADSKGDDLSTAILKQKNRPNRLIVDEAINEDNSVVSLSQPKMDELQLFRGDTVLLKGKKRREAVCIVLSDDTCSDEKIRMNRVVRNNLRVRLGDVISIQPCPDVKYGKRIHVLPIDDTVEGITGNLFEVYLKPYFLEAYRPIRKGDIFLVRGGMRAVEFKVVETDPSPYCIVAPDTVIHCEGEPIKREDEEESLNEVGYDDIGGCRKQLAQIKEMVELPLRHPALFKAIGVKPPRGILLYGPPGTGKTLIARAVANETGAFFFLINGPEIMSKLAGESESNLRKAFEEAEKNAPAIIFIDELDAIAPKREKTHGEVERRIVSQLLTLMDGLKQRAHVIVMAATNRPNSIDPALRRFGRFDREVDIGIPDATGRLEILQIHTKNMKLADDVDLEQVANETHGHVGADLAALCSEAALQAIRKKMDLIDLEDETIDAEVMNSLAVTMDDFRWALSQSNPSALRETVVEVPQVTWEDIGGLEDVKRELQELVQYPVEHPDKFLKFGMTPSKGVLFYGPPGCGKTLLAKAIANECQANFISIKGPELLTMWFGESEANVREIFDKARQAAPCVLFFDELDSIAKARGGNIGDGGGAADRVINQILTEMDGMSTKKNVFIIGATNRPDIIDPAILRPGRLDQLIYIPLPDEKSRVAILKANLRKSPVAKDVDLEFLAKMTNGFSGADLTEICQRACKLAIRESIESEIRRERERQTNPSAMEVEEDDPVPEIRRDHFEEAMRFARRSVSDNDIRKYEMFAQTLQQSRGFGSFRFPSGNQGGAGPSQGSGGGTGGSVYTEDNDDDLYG
- assayComment: ATPase activity of purified His-tagged VCP, [γ-32P]ATP, liberated phosphate by liquid scintillation
- Assay type: biochemical
- particulars: compounds of Examples; ATPase inhibitory activity; 500 ng VCP, 100 μM ATP, 37° C., 10 minutes
Counter-ions that a name gives are not always drawn.
quantityMeasured: IC50 (nM)
Give a bare numeral; the unit nM is implied.

Request: Identify measured IC50 corresponding to Nc1c(/N=N/c2ccc(OCC3CCCO3)nc2)cc(S(=O)(=O)O)c2ccccc12 (centres unmarked) [Example 4, sodium salt]
Response: 407

Request: Give IC50 for CCCCOc1c(OCC)cc(C=O)cc1-c1ccc(/N=N/c2cc(S(=O)(=O)O)c3ccccc3c2N)cn1 [Example 148, sodium salt]
Response: 1560

Request: Report measured IC50; entry is Cc1cc(C=O)c(OC(C)C)c(-c2ccc(/N=N/c3cc(S(=O)(=O)O)c4ccccc4c3N)cn2)c1 [Example 91, sodium salt]
Response: 212

Request: Answer with the recorded IC50 for the molecule listed here: Nc1c(/N=N/c2ccc(-c3ccccc3-c3ccccc3)nc2)cc(S(=O)(=O)O)c2ccccc12 [Example 12, sodium salt]
Response: 116

Request: Read the entry Cc1cccc(-c2ccc(/N=N/c3cc(S(=O)(=O)O)c4ccccc4c3N)cn2)c1 [Example 9, sodium salt] and write its reported IC50.
Response: 188

Request: Answer with reported IC50 of Nc1c(/N=N/c2ccc(Br)cc2)cc(S(=O)(=O)O)c2ccccc12 [Example 110, sodium salt]
Response: 226

Request: Look up and state reported IC50 for Nc1c(/N=N/c2ccc(-c3cccc4c3oc3ccccc34)nc2)cc(S(=O)(=O)O)c2ccccc12 [Example 39, sodium salt]
Response: 754

Request: Give reported IC50 value for Cc1cc(C)cc(-c2ccc(/N=N/c3cc(S(=O)(=O)O)c4ccccc4c3N)cn2)c1 [Example 35, sodium salt]
Response: 632

Request: Supply IC50 value. Item: Cc1ccccc1-c1ccc(/N=N/c2cc(S(=O)(=O)O)c3ccccc3c2N)cn1 [Example 10, sodium salt]
Response: 149

Request: Complete the entry with IC50 for Nc1c(/N=N/c2cnc(Cl)c(-c3ccccc3)c2)cc(S(=O)(=O)O)c2ccccc12 [Example 88, sodium salt]
Response: 348

Request: Please report IC50 for the following molecule: Nc1c(/N=N/c2ccc(-c3csc4ccccc34)nc2)cc(S(=O)(=O)O)c2ccccc12 [Example 41, sodium salt]
Response: 210

Request: Dear colleague, please send me the reported IC50 for Nc1c(/N=N/c2ccc(-c3cccc4c3sc3ccccc34)nc2)cc(S(=O)(=O)O)c2ccccc12 [Example 31, sodium salt] when you can.
Response: 1030

Request: Identify measured IC50 corresponding to Nc1c(/N=N/c2ccc(-c3ccc(C(=O)c4ccccc4)cc3)nc2)cc(S(=O)(=O)O)c2ccccc12 [Example 47, sodium salt]
Response: 589

Request: For the molecule CC(C)(C)OC(=O)NCCCOc1ccccc1-c1ccc(/N=N/c2cc(S(=O)(=O)O)c3ccccc3c2N)cn1 [Example 68, sodium salt] , report IC50.
Response: 201
